Data provenance: paper PMC9743148

Test: clinical
Details: human, plasma, oral, 36 mg, T1/2, 36 mg t.i.w., cycle 1 Day 1, mean
Result type: half-life (h)

[[record]]
compound_smiles = "C=CC(=O)N1CC[C@H](n2nc(C#Cc3cc(OC)cc(OC)c3)c3c(N)ncnc32)C1"
meas_value = 4.84


----------
Test: clinical
Settings: human, plasma, oral, 16 mg, T1/2, 16 mg t.i.w., cycle 1 Last Wednesday, mean
Result type: half-life (h)

[[record]]
compound = "C=CC(=O)N1CC[C@H](n2nc(C#Cc3cc(OC)cc(OC)c3)c3c(N)ncnc32)C1 [futibatinib]"
result_type = "half-life"
meas_value = 2.75

